Measured pest or weed control at 500 g/ha values are reported for all entries that follow.
System: barnyardgrass (Echinochloa crus-galli)
Test: Test A postemergence
Type: in vivo
Conditions: Echinochloa crus-galli, post-emergence, 240 h, Postemergence, 500 g ai/ha; visual injury, 0 to 100 scale (0 no effect, 100 complete control), approx. 10 d; read-out: Plant response rating, Barnyardgrass
Text: […]

GIVEN_SMILES: CN1C[C@H](c2ccc(C(F)(F)F)cc2)[C@@H](C(=O)Nc2ccccc2C#N)C1=O
MEASUREMENT_TARGET: barnyardgrass (Echinochloa crus-galli)
pest or weed control at 500 g/ha, %: 100
--
GIVEN_SMILES: CN1C[C@H](c2ccc(C(F)(F)F)cc2)[C@@H](C(=O)Nc2cccc(C#N)c2F)C1=O
MEASUREMENT_TARGET: barnyardgrass (Echinochloa crus-galli)
pest or weed control at 500 g/ha, %: 80
--
GIVEN_SMILES: CN1C[C@H](c2ccc(C(F)(F)F)cc2)[C@@H](C(=O)Nc2ccccc2)C1=O
MEASUREMENT_TARGET: barnyardgrass (Echinochloa crus-galli)
pest or weed control at 500 g/ha, %: 100
--
GIVEN_SMILES: O=C1NC[C@H](c2cncs2)[C@H]1C(=O)Nc1cccc(F)c1F
MEASUREMENT_TARGET: barnyardgrass (Echinochloa crus-galli)
pest or weed control at 500 g/ha, %: 0
--
GIVEN_SMILES: Cc1cc([C@H]2CNC(=O)[C@@H]2C(=O)Nc2ccccc2S(C)(=O)=O)ccc1Cl
MEASUREMENT_TARGET: barnyardgrass (Echinochloa crus-galli)
pest or weed control at 500 g/ha, %: 80

* * *

Test system: giant foxtail (Setaria faberii)
Assay: Test A postemergence
Format: in vivo
Conditions: Setaria faberi, post-emergence, 240 h, Postemergence, 31 g ai/ha; visual injury after approx. 10 d; 0 to 100 scale, 0 no effect, 100 complete control; read-out: Plant response rating, Foxtail, Giant
Measured pest or weed control at 31 g/ha values are reported for all entries that follow.

COMPOUND: C=C(C)c1cccc([C@H]2CN(C)C(=O)[C@@H]2C(=O)Nc2cccc(F)c2C)c1 [Compound 1086]
MEASUREMENT_TARGET: giant foxtail (Setaria faberii)
pest or weed control at 31 g/ha, %: 10
--
COMPOUND: CN1C[C@H](c2ccc(C(F)(F)F)nc2)[C@@](C)(C(=O)Nc2cccc(F)c2F)C1=O [Compound 1109]
MEASUREMENT_TARGET: giant foxtail (Setaria faberii)
pest or weed control at 31 g/ha, %: 70
--
COMPOUND: CN1C[C@H](c2cc(F)cc(C(F)(F)F)c2)[C@@H](C(=O)Nc2cccnc2F)C1=O [Compound 1176]
MEASUREMENT_TARGET: giant foxtail (Setaria faberii)
pest or weed control at 31 g/ha, %: 80
--
COMPOUND: O=C(Nc1ccc(F)c(F)c1F)[C@H]1C(=O)N(C2CC2)CC[C@@H]1c1ccc(F)cc1 [Compound 1004]
MEASUREMENT_TARGET: giant foxtail (Setaria faberii)
pest or weed control at 31 g/ha, %: 0

* * *

Tested on: barnyardgrass (Echinochloa crus-galli)
Experiment: Test G Post-Emergence Protocol
Type: in vivo
Conditions: Echinochloa crus-galli, post-emergence, 312 h, 250 g ai/ha, evaluated after 13 days, read-out: damage to plant, Barnyardgrass (100=total damage to plant; 0=no damage to plant)
Measured pest or weed control at 250 g/ha values are reported for all entries that follow.

COMPOUND: CN1C[C@H](c2ccc(Cl)cc2)[C@@H](C(=O)Nc2cccc(F)n2)C1=O [Compound 1399]
pest or weed control at 250 g/ha: 80%
--
COMPOUND: COc1cncc(NC(=O)[C@@H]2C(=O)N(C)C[C@H]2c2ccc(C(F)(F)F)cc2)n1 (racemic) [Compound 1565]
pest or weed control at 250 g/ha: 10%
--
COMPOUND: Cc1cc(C(F)(F)F)ccc1NC(=O)[C@H]1C(=O)N(C)C[C@@H]1c1ccc(C(F)(F)F)cc1 (racemic) [Compound 1411]
pest or weed control at 250 g/ha: 0%
--
COMPOUND: CN1C[C@H](c2ccc(C(F)(F)F)cc2)[C@@H](C(=O)Nc2cccc3nsnc23)C1=O (racemic) [Compound 1430]
pest or weed control at 250 g/ha: 30%
